Ref: paper PMC4563558

Reported values of pIC50 for individual entries
System: HeLa
Test: MTT antiproliferation assay, HeLa
Format: cell-based
Conditions: Homo sapiens, 72 h exposure, read-out: IC50 ± SD, HeLa
pIC50: −log10 of the molar value.
readoutKind: pIC50

molecule | readoutKind | quantitativeResult
COc1cc(OC)nc(NC(=O)CN2CCN(c3ccc(Cl)c(Cl)c3)CC2)n1 [3p] | pIC50 | 7.10
COc1cc(OC)nc(NC(=O)CN2CCN(c3ccccc3OC)CC2)n1 [3e] | pIC50 | 5.81
COc1cc(OC)nc(NC(=O)CN2CCN(c3cccc(C(F)(F)F)c3)CC2)n1 [3r] | pIC50 | 5.40
COc1cc(OC)nc(NC(=O)CN2CCN(c3ccccc3F)CC2)n1 [3c] | pIC50 | 5.57
COc1cc(OC)nc(NC(=O)CN2CCN(c3ccccc3)CC2)n1 [3d] | pIC50 | 4.99
COc1cc(OC)nc(NC(=O)CN2CCN(c3ccccn3)CC2)n1 [3m] | pIC50 | 5.29
C#Cc1cccc(Nc2ncnc3cc(OCCOC)c(OCCOC)cc23)c1 [Erlotinib, reference compound] | pIC50 | 6.96
COc1cc(OC)nc(NC(=O)CN2CCN(c3ccc([N+](=O)[O-])cc3)CC2)n1 [3f] | pIC50 | 5.30
COc1ccc(N2CCN(CC(=O)Nc3nc(OC)cc(OC)n3)CC2)cc1 [3i] | pIC50 | 6.05

###

Target: bFGF
Assay: Kinase selectivity assay (kit), bFGF
Details: read-out: Inhibition of bFGF IC50
Reported values of IC50 for individual entries
readoutKind: IC50

cpdSmiles | result
COc1cc(OC)nc(NC(=O)CN2CCN(c3cccc(C(F)(F)F)c3)CC2)n1 | 33.9 µM
COc1cc(OC)nc(NC(=O)CN2CCN(c3ccccc3OC)CC2)n1 | 11.5 µM
COc1cc(OC)nc(NC(=O)CN2CCN(c3ccccc3F)CC2)n1 | 25.4 µM
COc1cc(OC)nc(NC(=O)CN2CCN(c3ccc(Cl)c(Cl)c3)CC2)n1 | 27.1 µM
COc1ccc(N2CCN(CC(=O)Nc3nc(OC)cc(OC)n3)CC2)cc1 | 22.4 µM
COc1cc(OC)nc(NC(=O)CN2CCN(c3ccc([N+](=O)[O-])cc3)CC2)n1 | 21.5 µM
COc1cc(OC)nc(NC(=O)CN2CCN(c3ccccc3)CC2)n1 | 18.5 µM
COc1cc(OC)nc(NC(=O)CN2CCN(c3ccccn3)CC2)n1 | 3.8 µM

###

Biological target: PDGFR
Experiment: Kinase selectivity assay (kit), PDGFR
Conditions: read-out: Inhibition of PDGFR IC50
pIC50: −log10 of the molar value.
Reported values of pIC50 for individual entries

cpdSmiles | systemTested | pIC50
COc1cc(OC)nc(NC(=O)CN2CCN(c3ccc(Cl)c(Cl)c3)CC2)n1 | PDGFR | 4.76
COc1cc(OC)nc(NC(=O)CN2CCN(c3ccccc3F)CC2)n1 | PDGFR | 4.47
COc1cc(OC)nc(NC(=O)CN2CCN(c3cccc(C(F)(F)F)c3)CC2)n1 | PDGFR | 5.41

###

Reported values of Bodyweights 0 day ± SD for individual entries
Test: Acute oral toxicity, bodyweights
Type: in vivo
Conditions: mice, day 0
Method: Before the acute toxicity experiment, mice were stopped being served food but water was kept for 3 h. The test substances were dissolved in maize germ oil[24]. The preliminary experiment was performed as follows: Four dose levels, 100, 500, 2000, and 5000 mg/kg body weight and three mice for each level were used. We observed the death and evident toxicity in 7 days to determine the general concentration range. […]

cpdSmiles | Bodyweights 0 day ± SD / g
COc1ccc(N2CCN(CC(=O)Nc3nc(OC)cc(OC)n3)CC2)cc1 | 21.33
COc1cc(OC)nc(NC(=O)CN2CCN(c3ccccn3)CC2)n1 | 22.43
COc1cc(OC)nc(NC(=O)CN2CCN(c3ccccc3F)CC2)n1 | 21.09
COc1cc(OC)nc(NC(=O)CN2CCN(c3ccc([N+](=O)[O-])cc3)CC2)n1 | 20.57
COc1cc(OC)nc(NC(=O)CN2CCN(c3cccc(C(F)(F)F)c3)CC2)n1 | 21.00
COc1cc(OC)nc(NC(=O)CN2CCN(c3ccccc3)CC2)n1 | 21.18
COc1cc(OC)nc(NC(=O)CN2CCN(c3ccccc3OC)CC2)n1 | 21.11
COc1cc(OC)nc(NC(=O)CN2CCN(c3ccc(Cl)c(Cl)c3)CC2)n1 | 22.12
